- target_system: CAR (Homo sapiens (Human))
- Sequence (Q14994 109-352): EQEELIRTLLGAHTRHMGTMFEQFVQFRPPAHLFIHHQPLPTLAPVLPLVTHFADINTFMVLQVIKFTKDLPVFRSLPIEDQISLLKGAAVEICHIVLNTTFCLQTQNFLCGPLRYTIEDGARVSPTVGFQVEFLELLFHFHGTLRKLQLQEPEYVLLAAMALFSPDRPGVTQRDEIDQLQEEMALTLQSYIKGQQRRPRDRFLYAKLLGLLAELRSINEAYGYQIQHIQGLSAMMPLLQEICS
- experiment_notes: Nuclear hormone receptor selectivity assay (GAL4-NHR-LBD luciferase, HEK293)
- conditions_used: antagonist mode, reference agonist at EC80
assay_endpoint: IC50

*Q* Please look at this compound and report its IC50: O=C(O)[C@@H]1CC=C(c2nn(C(=O)c3c(Cl)cccc3C3(C(F)(F)F)CC3)c3c2CC[C@@H](C(=O)N2CCC4(COC4)C2)C3)CC1 [Test Compound]
*A* > 10 µM

----------
- target_system: RARβ (Homo sapiens (Human), UniProt P10826)
- Sequence (P10826 183-417, species assumed): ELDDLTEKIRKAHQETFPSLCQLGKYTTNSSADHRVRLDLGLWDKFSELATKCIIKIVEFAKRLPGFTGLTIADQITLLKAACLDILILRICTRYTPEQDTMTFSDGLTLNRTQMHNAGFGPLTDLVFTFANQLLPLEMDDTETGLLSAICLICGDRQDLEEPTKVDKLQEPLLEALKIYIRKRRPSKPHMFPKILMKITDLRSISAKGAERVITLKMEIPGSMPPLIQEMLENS
- experiment_notes: Nuclear hormone receptor selectivity assay (GAL4-NHR-LBD luciferase, HEK293)
- conditions_used: antagonist mode, reference agonist at EC80
pIC50: −log10 of the molar value.
assay_endpoint: pIC50

*Q* Find pIC50 for `O=C(O)[C@@H]1CC=C(c2nn(C(=O)c3c(Cl)cccc3C3(C(F)(F)F)CC3)c3c2CC[C@@H](C(=O)N2CCC4(COC4)C2)C3)CC1` on RARβ (Homo sapiens (Human), UniProt P10826) and write it down.
*A* < 5.00

----------
- target_system: UniProt:P10828
- Sequence (P10828 217-461): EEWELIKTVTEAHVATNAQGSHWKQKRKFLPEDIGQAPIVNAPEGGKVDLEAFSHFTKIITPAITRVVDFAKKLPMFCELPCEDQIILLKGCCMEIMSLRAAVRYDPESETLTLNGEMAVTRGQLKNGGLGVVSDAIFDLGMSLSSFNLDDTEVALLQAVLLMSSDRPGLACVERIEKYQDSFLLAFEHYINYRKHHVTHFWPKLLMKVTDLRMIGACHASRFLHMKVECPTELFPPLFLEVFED
- experiment_notes: Nuclear hormone receptor selectivity assay (GAL4-NHR-LBD luciferase, HEK293)
- conditions_used: antagonist mode, reference agonist at EC80
assay_endpoint: IC50

*Q* Give recorded IC50. `O=C(O)[C@@H]1CC=C(c2nn(C(=O)c3c(Cl)cccc3C3(C(F)(F)F)CC3)c3c2CC[C@@H](C(=O)N2CCC4(COC4)C2)C3)CC1`
*A* > 10 µM

----------
- target_system: UniProt:Q13133
- experiment_notes: Nuclear hormone receptor selectivity assay (GAL4-NHR-LBD luciferase, HEK293)
- conditions_used: agonist mode
assay_endpoint: EC50

*Q* Give EC50; test system UniProt:Q13133; molecule `O=C(O)[C@@H]1CC=C(c2nn(C(=O)c3c(Cl)cccc3C3(C(F)(F)F)CC3)c3c2CC[C@@H](C(=O)N2CCC4(COC4)C2)C3)CC1`
*A* > 10 µM

----------
- target_system: VDR (Homo sapiens (Human), UniProt P11473)
- Sequence (P11473 127-423, species assumed): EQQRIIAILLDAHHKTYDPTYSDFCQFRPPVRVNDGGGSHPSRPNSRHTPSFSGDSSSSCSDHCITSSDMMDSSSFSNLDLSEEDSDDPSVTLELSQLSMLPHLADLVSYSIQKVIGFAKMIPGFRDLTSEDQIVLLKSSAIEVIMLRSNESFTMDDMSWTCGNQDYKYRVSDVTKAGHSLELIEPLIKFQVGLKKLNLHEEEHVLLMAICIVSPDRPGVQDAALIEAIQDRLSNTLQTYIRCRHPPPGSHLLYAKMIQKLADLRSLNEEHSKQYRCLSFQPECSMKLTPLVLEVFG
- experiment_notes: Nuclear hormone receptor selectivity assay (GAL4-NHR-LBD luciferase, HEK293)
- conditions_used: antagonist mode, reference agonist at EC80
assay_endpoint: IC50

*Q* Give a short answer stating reported IC50 for `O=C(O)[C@@H]1CC=C(c2nn(C(=O)c3c(Cl)cccc3C3(C(F)(F)F)CC3)c3c2CC[C@@H](C(=O)N2CCC4(COC4)C2)C3)CC1` .
*A* > 10 µM

----------
- target_system: LXRα (Homo sapiens (Human), UniProt Q13133)
- Sequence (Q13133 209-447): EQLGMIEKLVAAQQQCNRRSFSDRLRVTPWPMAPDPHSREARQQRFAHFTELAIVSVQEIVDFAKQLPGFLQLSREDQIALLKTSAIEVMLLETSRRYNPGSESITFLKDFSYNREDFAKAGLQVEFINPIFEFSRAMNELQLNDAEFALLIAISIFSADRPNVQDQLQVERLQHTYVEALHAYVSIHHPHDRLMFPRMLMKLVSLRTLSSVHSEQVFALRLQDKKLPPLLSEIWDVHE
- experiment_notes: Nuclear hormone receptor selectivity assay (GAL4-NHR-LBD luciferase, HEK293)
- conditions_used: antagonist mode, reference agonist at EC80
pIC50: −log10 of the molar value.
assay_endpoint: pIC50

*Q* Return pIC50 for the following compound: `O=C(O)[C@@H]1CC=C(c2nn(C(=O)c3c(Cl)cccc3C3(C(F)(F)F)CC3)c3c2CC[C@@H](C(=O)N2CCC4(COC4)C2)C3)CC1`
*A* < 5.00

----------
- target_system: RORβ (Homo sapiens (Human))
- Sequence (Q92753 222-460): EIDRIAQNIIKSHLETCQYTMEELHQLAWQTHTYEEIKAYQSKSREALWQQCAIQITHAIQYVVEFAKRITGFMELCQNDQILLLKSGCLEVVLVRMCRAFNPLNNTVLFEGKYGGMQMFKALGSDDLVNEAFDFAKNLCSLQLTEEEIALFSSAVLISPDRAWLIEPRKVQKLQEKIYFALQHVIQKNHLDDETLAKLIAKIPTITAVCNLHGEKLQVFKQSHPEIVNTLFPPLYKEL
- experiment_notes: Nuclear hormone receptor selectivity assay (GAL4-NHR-LBD luciferase, HEK293)
- conditions_used: antagonist mode
pIC50: −log10 of the molar value.
assay_endpoint: pIC50

*Q* Using the record for `O=C(O)[C@@H]1CC=C(c2nn(C(=O)c3c(Cl)cccc3C3(C(F)(F)F)CC3)c3c2CC[C@@H](C(=O)N2CCC4(COC4)C2)C3)CC1` , state its measured pIC50.
*A* < 5.00

----------
- target_system: PPARβ (Homo sapiens (Human), UniProt Q03181)
- Sequence (Q03181 211-439, species assumed): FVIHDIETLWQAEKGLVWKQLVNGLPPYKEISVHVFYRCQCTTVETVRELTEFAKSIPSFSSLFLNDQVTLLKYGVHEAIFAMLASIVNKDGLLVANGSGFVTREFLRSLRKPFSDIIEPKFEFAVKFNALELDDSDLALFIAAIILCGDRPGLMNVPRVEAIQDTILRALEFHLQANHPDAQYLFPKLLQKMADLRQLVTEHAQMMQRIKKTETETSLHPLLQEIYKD
- experiment_notes: Nuclear hormone receptor selectivity assay (GAL4-NHR-LBD luciferase, HEK293)
- Type: cell-based
- conditions_used: antagonist mode, reference agonist at EC80
assay_endpoint: IC50

*Q* Indicate its recorded IC50; the compound in question is O=C(O)[C@@H]1CC=C(c2nn(C(=O)c3c(Cl)cccc3C3(C(F)(F)F)CC3)c3c2CC[C@@H](C(=O)N2CCC4(COC4)C2)C3)CC1 [Test Compound]
*A* > 10 µM
